- subjectOfTest: FLT3 kinase (Homo sapiens, UniProt P36888)
- Sequence (P36888 564-993): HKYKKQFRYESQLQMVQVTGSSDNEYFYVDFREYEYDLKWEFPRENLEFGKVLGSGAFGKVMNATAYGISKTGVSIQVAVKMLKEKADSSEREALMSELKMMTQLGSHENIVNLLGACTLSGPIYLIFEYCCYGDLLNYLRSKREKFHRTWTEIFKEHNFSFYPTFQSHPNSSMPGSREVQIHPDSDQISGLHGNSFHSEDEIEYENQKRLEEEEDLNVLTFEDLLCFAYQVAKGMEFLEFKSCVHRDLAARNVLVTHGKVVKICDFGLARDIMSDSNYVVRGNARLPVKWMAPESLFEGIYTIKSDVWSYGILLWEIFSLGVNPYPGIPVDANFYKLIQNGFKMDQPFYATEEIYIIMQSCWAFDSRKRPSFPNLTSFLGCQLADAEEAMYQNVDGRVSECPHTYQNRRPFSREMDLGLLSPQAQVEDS
resultType: pIC50
Worth noting: pIC50 values are minus log10 of concentrations stated in mol/L.

Look over these answered cases.
Lookup: Please report the measured pIC50 for COc1cc2nn(C3CCS(=N)(=O)CC3)cc2cc1NC(=O)c1coc(-c2ccnc(C)c2)n1 (centres unmarked)
Found: 9.33

Lookup: Please report the measured pIC50 for COc1cc2nn(CCC3CCNC3=O)cc2cc1NC(=O)c1coc(Br)n1 (centres unmarked)
Found: 7.92

Continuing:
Lookup: Please report the measured pIC50 for Cc1cc(-c2nc(C(=O)Nc3cc4sc(N5CCOCC5)nc4cc3N3CCC(O)C3)co2)ccn1 (centres unmarked)
Found: 9.59

Lookup: Please report the measured pIC50 for COc1cc2nn(C3CCNCC3)cc2cc1NC(=O)c1coc(-c2ccncc2)n1 [II-10C]
Found: 8.54

Lookup: Please report the measured pIC50 for Cc1cc(-c2nc(C(=O)Nc3cc4cn(C5CCNCC5)nc4cc3OC(C)C)co2)ccn1 [II-14C]
Found: 9.14

Lookup: Please report the measured pIC50 for Cc1cc(-c2nc(C(=O)Nc3cc4oc(N5CCN(CC(F)(F)F)CC5)nc4nc3N3CCC(O)C3)co2)ccn1 (centres unmarked)
Found: 7.89

Lookup: Please report the measured pIC50 for Cc1cc(-c2nc(C(=O)Nc3cc4cn(C5CC6CCC(C5)N6)nc4cc3C(C)(C)O)co2)ccn1 (centres unmarked)
Found: 9.21

Lookup: Please report the measured pIC50 for Cc1cc(-c2nc(C(=O)Nc3cc4cn(CCC(C)(C)O)nc4cc3C(C)(C)O)co2)ccn1
Found: 9.49
